Target: Prostaglandin D2 receptor (Homo sapiens)
Sequence (Q13258 whole entry): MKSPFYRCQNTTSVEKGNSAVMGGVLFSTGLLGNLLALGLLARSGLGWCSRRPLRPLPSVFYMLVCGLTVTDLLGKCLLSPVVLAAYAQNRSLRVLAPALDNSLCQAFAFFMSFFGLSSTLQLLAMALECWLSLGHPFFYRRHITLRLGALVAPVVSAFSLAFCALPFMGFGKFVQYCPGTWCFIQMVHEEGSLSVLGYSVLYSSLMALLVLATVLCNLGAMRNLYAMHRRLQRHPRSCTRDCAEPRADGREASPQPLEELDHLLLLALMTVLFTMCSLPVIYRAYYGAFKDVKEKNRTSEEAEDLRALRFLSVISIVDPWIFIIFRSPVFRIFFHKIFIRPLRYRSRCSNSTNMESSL
Assay: In vitro inhibition of cAMP formation evoked by prostaglandin D2 receptor in human platelets
Assay type: functional
Rule: measured IC50 below 0.2 µM gets yes; anything equal to or greater than 0.2 µM gets no.

>  <STRUCTURE_SMILES_STRING>
O=C(O)CCC/C=C\C[C@@H]1[C@H]2CC[C@H](C2)[C@H]1NS(=O)(=O)c1ccc(C#Cc2ccccc2)cc1

>  <TESTED_SYSTEM>
Prostaglandin D2 receptor (Homo sapiens)

>  <CLASS_LABEL>
no

$$$$
>  <STRUCTURE_SMILES_STRING>
O=C(O)CCC/C=C\C[C@@H]1[C@H]2CC[C@H](C2)[C@H]1NS(=O)(=O)c1cccc(-c2ccccc2)c1

>  <TESTED_SYSTEM>
Prostaglandin D2 receptor (Homo sapiens)

>  <CLASS_LABEL>
no

$$$$
>  <STRUCTURE_SMILES_STRING>
O=C(O)CCC/C=C\C[C@@H]1[C@H]2CC[C@H](C2)[C@H]1NS(=O)(=O)c1ccc2c(c1)oc1ccccc12

>  <TESTED_SYSTEM>
Prostaglandin D2 receptor (Homo sapiens)

>  <CLASS_LABEL>
yes

$$$$
>  <STRUCTURE_SMILES_STRING>
O=C(O)CCC/C=C\C[C@@H]1[C@H]2CC[C@H](C2)[C@H]1NS(=O)(=O)c1ccc2[nH]c3ccccc3c2c1

>  <TESTED_SYSTEM>
Prostaglandin D2 receptor (Homo sapiens)

>  <CLASS_LABEL>
yes

$$$$
>  <STRUCTURE_SMILES_STRING>
O=C(O)CCC/C=C\C[C@@H]1[C@H]2CC[C@H](C2)[C@H]1NS(=O)(=O)c1ccc2oc3ccc(O)cc3c2c1

>  <TESTED_SYSTEM>
Prostaglandin D2 receptor (Homo sapiens)

>  <CLASS_LABEL>
no

$$$$
>  <STRUCTURE_SMILES_STRING>
O=C(O)CCC/C=C\C[C@@H]1[C@H]2CC[C@H](C2)[C@H]1NS(=O)(=O)c1ccccc1Br

>  <TESTED_SYSTEM>
Prostaglandin D2 receptor (Homo sapiens)

>  <CLASS_LABEL>
no

$$$$
>  <STRUCTURE_SMILES_STRING>
Cc1cc(C)c(S(=O)(=O)N[C@@H]2[C@@H]3CC[C@@H](C3)[C@H]2C/C=C\CCCC(=O)O)c(C)c1

>  <TESTED_SYSTEM>
Prostaglandin D2 receptor (Homo sapiens)

>  <CLASS_LABEL>
yes

$$$$
>  <STRUCTURE_SMILES_STRING>
COc1cc2c(cc1S(=O)(=O)N[C@@H]1[C@@H]3CC[C@@H](C3)[C@H]1CC(=O)CCCCC(=O)O)oc1ccccc12

>  <TESTED_SYSTEM>
Prostaglandin D2 receptor (Homo sapiens)

>  <CLASS_LABEL>
yes

$$$$
>  <STRUCTURE_SMILES_STRING>
COc1cc2c(cc1S(=O)(=O)N[C@@H]1[C@@H]3CC[C@@H](C3)[C@H]1C/C=C\CCC(C)(C)C(=O)O)oc1ccccc12

>  <TESTED_SYSTEM>
Prostaglandin D2 receptor (Homo sapiens)

>  <CLASS_LABEL>
no

$$$$
>  <STRUCTURE_SMILES_STRING>
O=C(O)CCC/C=C\C[C@@H]1[C@H]2CC[C@H](C2)[C@H]1NS(=O)(=O)c1ccc(/C=C/c2ccccc2)s1

>  <TESTED_SYSTEM>
Prostaglandin D2 receptor (Homo sapiens)

>  <CLASS_LABEL>
yes

$$$$
>  <STRUCTURE_SMILES_STRING>
O=C(O)CCC/C=C\C[C@@H]1[C@H]2CC[C@H](C2)[C@H]1NS(=O)(=O)c1ccc(-c2nnnn2-c2ccccc2)cc1

>  <TESTED_SYSTEM>
Prostaglandin D2 receptor (Homo sapiens)

>  <CLASS_LABEL>
no

$$$$
>  <STRUCTURE_SMILES_STRING>
O=C(O)CCC/C=C\C[C@@H]1[C@H]2CC[C@H](C2)[C@H]1NS(=O)(=O)c1ccc(Cc2ccccc2)cc1

>  <TESTED_SYSTEM>
Prostaglandin D2 receptor (Homo sapiens)

>  <CLASS_LABEL>
no

$$$$
>  <STRUCTURE_SMILES_STRING>
O=C(O)CCCCCC[C@@H]1[C@H]2CC[C@H](C2)[C@H]1NS(=O)(=O)c1ccc2oc3ccccc3c2c1

>  <TESTED_SYSTEM>
Prostaglandin D2 receptor (Homo sapiens)

>  <CLASS_LABEL>
no

$$$$
>  <STRUCTURE_SMILES_STRING>
COc1ccc2oc3ccc(S(=O)(=O)N[C@@H]4[C@@H]5CC[C@@H](C5)[C@H]4C/C=C\CCCC(=O)O)cc3c2c1

>  <TESTED_SYSTEM>
Prostaglandin D2 receptor (Homo sapiens)

>  <CLASS_LABEL>
no

$$$$

----------
Below: a set of entries, each annotated with reported inhibition in vivo at 1 mg/kg.
Test system: Cavia porcellus
Assay: In vivo inhibition of antigen induced increase in intranasal pressure in actively sensitized guinea pig after an intravenous dose of 1 mg/kg
Format: functional
MEASURE: inhibition in vivo at 1 mg/kg (%)

>  <STRUCTURE_SMILES_STRING>
O=C(O)CCC/C=C\C[C@@H]1[C@H]2CC[C@H](C2)[C@H]1NS(=O)(=O)c1ccc2cc(-c3ccc(O)cc3)[nH]c2c1

>  <TESTED_SYSTEM>
Cavia porcellus

>  <UNIT_NAME>
%

>  <ENDPOINT_RESULT>
42

$$$$
>  <STRUCTURE_SMILES_STRING>
O=C(O)CCC/C=C\C[C@@H]1[C@H]2CC[C@H](C2)[C@H]1NS(=O)(=O)c1ccc2sc3ccccc3c2c1

>  <TESTED_SYSTEM>
Cavia porcellus

>  <UNIT_NAME>
%

>  <ENDPOINT_RESULT>
31

$$$$
>  <STRUCTURE_SMILES_STRING>
O=C(O)CCC/C=C\C[C@@H]1[C@H]2CC[C@H](C2)[C@H]1NS(=O)(=O)c1ccc2[nH]c3ccccc3c2c1

>  <TESTED_SYSTEM>
Cavia porcellus

>  <UNIT_NAME>
%

>  <ENDPOINT_RESULT>
-9

$$$$
>  <STRUCTURE_SMILES_STRING>
COc1ccc(-c2cc3ccc(S(=O)(=O)N[C@@H]4[C@@H]5CC[C@@H](C5)[C@H]4C/C=C\CCCC(=O)O)cc3[nH]2)cc1

>  <TESTED_SYSTEM>
Cavia porcellus

>  <UNIT_NAME>
%

>  <ENDPOINT_RESULT>
40

$$$$

----------
Molecular target: Prostaglandin D2 receptor (Homo sapiens)
Test: In vitro inhibition of cAMP formation evoked by prostaglandin D2 receptor in human platelets
Format: functional
pIC50: −log10 of the molar value.
Below: a set of entries, each annotated with reported pIC50.
MEASURE: pIC50

>  <STRUCTURE_SMILES_STRING>
Cn1c(-c2ccccc2)cc2ccc(S(=O)(=O)N[C@@H]3[C@@H]4CC[C@@H](C4)[C@H]3C/C=C\CCCC(=O)O)cc21

>  <READOUT_RELATION>
=

>  <ENDPOINT_RESULT>
6.72

$$$$
>  <STRUCTURE_SMILES_STRING>
O=C(O)CCC/C=C\C[C@@H]1[C@H]2CC[C@H](C2)[C@H]1NS(=O)(=O)c1ccc(C(=O)Nc2ccccc2)cc1

>  <READOUT_RELATION>
=

>  <ENDPOINT_RESULT>
7.07

$$$$
>  <STRUCTURE_SMILES_STRING>
O=C(O)CCC/C=C\C[C@@H]1[C@H]2CC[C@H](C2)[C@H]1NS(=O)(=O)c1ccc(-c2cccs2)s1

>  <READOUT_RELATION>
=

>  <ENDPOINT_RESULT>
6.70

$$$$
>  <STRUCTURE_SMILES_STRING>
O=C(O)CCC/C=C\C[C@@H]1[C@H]2CC[C@H](C2)[C@H]1NS(=O)(=O)c1cc2oc3ccccc3c2cc1O

>  <READOUT_RELATION>
=

>  <ENDPOINT_RESULT>
6.74

$$$$
>  <STRUCTURE_SMILES_STRING>
O=C(O)CCC/C=C\C[C@@H]1[C@H]2CC[C@H](C2)[C@H]1NS(=O)(=O)c1ccc(/C=C/c2ccccc2)cc1

>  <READOUT_RELATION>
=

>  <ENDPOINT_RESULT>
6.74

$$$$
>  <STRUCTURE_SMILES_STRING>
CN(C)c1ccc2c(c1)oc1ccc(S(=O)(=O)N[C@@H]3[C@@H]4CC[C@@H](C4)[C@H]3C/C=C\CCCC(=O)O)cc12

>  <READOUT_RELATION>
=

>  <ENDPOINT_RESULT>
6.77

$$$$
>  <STRUCTURE_SMILES_STRING>
COc1ccc(S(=O)(=O)N[C@@H]2[C@@H]3CC[C@@H](C3)[C@H]2C/C=C\CCCC(=O)O)cc1[N+](=O)[O-]

>  <READOUT_RELATION>
=

>  <ENDPOINT_RESULT>
6.55

$$$$
>  <STRUCTURE_SMILES_STRING>
O=C(O)CCCCC(=O)C[C@@H]1[C@H]2CC[C@H](C2)[C@H]1NS(=O)(=O)c1ccc2oc3ccccc3c2c1

>  <READOUT_RELATION>
=

>  <ENDPOINT_RESULT>
7.72

$$$$
>  <STRUCTURE_SMILES_STRING>
O=C(O)CCC/C=C\C[C@@H]1[C@H]2CC[C@H](C2)[C@H]1NS(=O)(=O)c1ccc(CCc2ccccc2)cc1

>  <READOUT_RELATION>
=

>  <ENDPOINT_RESULT>
6.59

$$$$
>  <STRUCTURE_SMILES_STRING>
O=C(O)CCC/C=C\C[C@@H]1[C@H]2CC[C@H](C2)[C@H]1NS(=O)(=O)c1ccc(-c2ccc(C(F)(F)F)cc2)cc1

>  <READOUT_RELATION>
=

>  <ENDPOINT_RESULT>
6.46

$$$$
>  <STRUCTURE_SMILES_STRING>
CC(C)(CC/C=C\C[C@@H]1[C@H]2CC[C@H](C2)[C@H]1NS(=O)(=O)c1ccc2oc3ccccc3c2c1)C(=O)O

>  <READOUT_RELATION>
=

>  <ENDPOINT_RESULT>
6.49

$$$$
>  <STRUCTURE_SMILES_STRING>
O=C(O)CCC/C=C\C[C@@H]1[C@H]2CC[C@H](C2)[C@H]1NS(=O)(=O)Cc1ccc(-c2ccccc2)cc1

>  <READOUT_RELATION>
<

>  <ENDPOINT_RESULT>
6.00

$$$$
>  <STRUCTURE_SMILES_STRING>
O=C(O)CCC/C=C\C[C@@H]1[C@H]2CC[C@H](C2)[C@H]1NS(=O)(=O)c1ccc(-c2cc3ccccc3[nH]2)cc1

>  <READOUT_RELATION>
=

>  <ENDPOINT_RESULT>
6.68

$$$$
>  <STRUCTURE_SMILES_STRING>
CS(=O)(=O)NC(=O)CCC/C=C\C[C@@H]1[C@H]2CC[C@H](C2)[C@H]1NS(=O)(=O)c1ccc2oc3ccccc3c2c1

>  <READOUT_RELATION>
=

>  <ENDPOINT_RESULT>
7.49

$$$$
